# testSummary: Drug uptake in brain of mouse expressing SOD1 G93A mutant at 20 mg/kg, ip after 24 hrs
# Type: ADME, organism-based
# Set-up: dose 20 mg/kg, route intraperitoneal
# testSettings: read-out: Drug uptake
readoutLabel: concentration at 24 h (nM)

molecule	readoutLabel	reportedMeasurement
Ic1cccc(CSc2nnc(-c3ccncc3)o2)c1	concentration at 24 h	77

* * *

# testSummary: Drug uptake in serum of mouse expressing SOD1 G93A mutant at 20 mg/kg, ip after 24 hrs
# Type: ADME, organism-based
# Set-up: dose 20 mg/kg, route intraperitoneal
# testSettings: read-out: Drug uptake
readoutLabel: concentration at 24 h (nM)

molecule	unitTag	reportedMeasurement
Ic1cccc(CSc2nnc(-c3ccncc3)o2)c1	nM	73

* * *

# testSummary: Drug uptake in brain of mouse expressing SOD1 G93A mutant at 20 mg/kg, ip after 1 hr
# Format: ADME, organism-based
# Design: dose 20 mg/kg, route intraperitoneal
# testSettings: read-out: Drug uptake

molecule	unitTag	concentration at 1 h
Ic1cccc(CSc2nnc(-c3ccncc3)o2)c1	nM	944

* * *

# testSummary: Drug uptake in spinal cord of mouse expressing SOD1 G93A mutant at 20 mg/kg, ip after 1 hr
# Type: ADME, organism-based
# Set-up: dose 20 mg/kg, route intraperitoneal
# testSettings: read-out: Drug uptake

molecule	concentration at 1 h / µM
Ic1cccc(CSc2nnc(-c3ccncc3)o2)c1	4

* * *

# testSummary: Drug uptake in spinal cord of mouse expressing SOD1 G93A mutant at 20 mg/kg, ip after 24 hrs
# Assay type: ADME, organism-based
# Design: dose 20 mg/kg, route intraperitoneal
# testSettings: read-out: Drug uptake

molecule	unitTag	concentration at 24 h
Ic1cccc(CSc2nnc(-c3ccncc3)o2)c1	nM	855

* * *

# testSummary: Drug uptake in serum of mouse expressing SOD1 G93A mutant at 10 mg/kg, ip after 4 hrs
# Assay type: ADME, organism-based
# Parameters: dose 10 mg/kg, route intraperitoneal
# testSettings: read-out: Drug uptake
readoutLabel: concentration at 4 h

molecule	readoutLabel	reportedMeasurement
COc1ccc(CSc2nnc(-c3ccncc3)o2)cc1	concentration at 4 h	334 nM

* * *

# testSummary: Drug uptake in brain of mouse expressing SOD1 G93A mutant at 10 mg/kg, ip after 2 hrs
# Assay type: ADME, organism-based
# Set-up: dose 10 mg/kg, route intraperitoneal
# testSettings: read-out: Drug uptake

molecule	concentration at 2 h
COc1ccc(CSc2nnc(-c3ccncc3)o2)cc1	29 nM

* * *

# testSummary: Drug uptake in serum of nontransgenic mouse at 10 mg/kg, ip after 24 hrs
readoutLabel: concentration at 24 h (nM)

molecule	reportedMeasurement
COc1ccc(CSc2nnc(-c3ccncc3)o2)cc1	123

Ref: ChEMBL document CHEMBL3124799
